experiment: Solubilizing of taxol with HPBCD (Example 5); format: physicochemical; conditions: 40% hpbcd solution; HPBCD 40%
ASSAY METRIC: solubility (µg/mL)
// units = µg/mL; emit number, no label

INPUT: Item CC(=O)O[C@H]1C(=O)[C@@]2(C)[C@H]([C@H](OC(=O)c3ccccc3)[C@]3(O)C[C@H](OC(=O)[C@H](O)[C@@H](NC(=O)c4ccccc4)c4ccccc4)C(C)=C1C3(C)C)[C@]1(OC(C)=O)CO[C@@H]1C[C@@H]2O (relative stereo) has what recorded solubility?
OUTPUT: 100

* * *

assay: physchem; details: 5% rameb in buffered saline, pH 7.6
ASSAY METRIC: solubility thermodynamic at 12 h
Answer format: number, then unit.

INPUT: Item CC(=O)O[C@H]1C(=O)[C@@]2(C)[C@H]([C@H](OC(=O)c3ccccc3)[C@]3(O)C[C@H](OC(=O)[C@H](O)[C@@H](NC(=O)c4ccccc4)c4ccccc4)C(C)=C1C3(C)C)[C@]1(OC(C)=O)CO[C@@H]1C[C@@H]2O (relative stereo) has what recorded solubility thermodynamic at 12 h?
OUTPUT: 42.5 µg/mL

* * *

test: physchem; details: water
ASSAY METRIC: solubility

INPUT: Item CC(=O)O[C@H]1C(=O)[C@@]2(C)[C@H]([C@H](OC(=O)c3ccccc3)[C@]3(O)C[C@H](OC(=O)[C@H](O)[C@@H](NC(=O)c4ccccc4)c4ccccc4)C(C)=C1C3(C)C)[C@]1(OC(C)=O)CO[C@@H]1C[C@@H]2O (relative stereo) has what recorded solubility?
OUTPUT: 0.55 to 0.59 µg/mL

* * *

experiment: Solubilizing of taxol with HPBCD (Example 5); assay type: physicochemical; conditions: HPBCD none
ASSAY METRIC: solubility (µg/mL)
// units = µg/mL; emit number, no label

INPUT: Item CC(=O)O[C@H]1C(=O)[C@@]2(C)[C@H]([C@H](OC(=O)c3ccccc3)[C@]3(O)C[C@H](OC(=O)[C@H](O)[C@@H](NC(=O)c4ccccc4)c4ccccc4)C(C)=C1C3(C)C)[C@]1(OC(C)=O)CO[C@@H]1C[C@@H]2O (relative stereo) has what recorded solubility?
OUTPUT: 0.6

* * *

experiment: physchem; settings: 1% rameb in buffered saline, pH 7.6
ASSAY METRIC: solubility thermodynamic at 12 h (µg/mL)
// units = µg/mL; emit number, no label

INPUT: Item CC(=O)O[C@H]1C(=O)[C@@]2(C)[C@H]([C@H](OC(=O)c3ccccc3)[C@]3(O)C[C@H](OC(=O)[C@H](O)[C@@H](NC(=O)c4ccccc4)c4ccccc4)C(C)=C1C3(C)C)[C@]1(OC(C)=O)CO[C@@H]1C[C@@H]2O (relative stereo) has what recorded solubility thermodynamic at 12 h?
OUTPUT: 4.4

* * *

test: Solubilizing of taxol with HPBCD (Example 5); format: physicochemical; details: 0.5% hpbcd solution; HPBCD 0.5%
ASSAY METRIC: solubility (µg/mL)
// units = µg/mL; emit number, no label

INPUT: Item CC(=O)O[C@H]1C(=O)[C@@]2(C)[C@H]([C@H](OC(=O)c3ccccc3)[C@]3(O)C[C@H](OC(=O)[C@H](O)[C@@H](NC(=O)c4ccccc4)c4ccccc4)C(C)=C1C3(C)C)[C@]1(OC(C)=O)CO[C@@H]1C[C@@H]2O (relative stereo) has what recorded solubility?
OUTPUT: 1

* * *

assay: Solubilizing of taxol with HPBCD (Example 5); format: physicochemical; settings: 5% hpbcd solution; HPBCD 5%
ASSAY METRIC: solubility (µg/mL)
// units = µg/mL; emit number, no label

INPUT: Item CC(=O)O[C@H]1C(=O)[C@@]2(C)[C@H]([C@H](OC(=O)c3ccccc3)[C@]3(O)C[C@H](OC(=O)[C@H](O)[C@@H](NC(=O)c4ccccc4)c4ccccc4)C(C)=C1C3(C)C)[C@]1(OC(C)=O)CO[C@@H]1C[C@@H]2O (relative stereo) has what recorded solubility?
OUTPUT: 6.8

* * *

experiment: Solubility of taxol with soluble anionic-β-cyclodextrin polymer CDPSI (Example 4); format: physicochemical; conditions: 10% cdpsi solution; CDPSI 10%
ASSAY METRIC: solubility (mg/mL)
// units = mg/mL; emit number, no label

INPUT: Item CC(=O)O[C@H]1C(=O)[C@@]2(C)[C@H]([C@H](OC(=O)c3ccccc3)[C@]3(O)C[C@H](OC(=O)[C@H](O)[C@@H](NC(=O)c4ccccc4)c4ccccc4)C(C)=C1C3(C)C)[C@]1(OC(C)=O)CO[C@@H]1C[C@@H]2O (relative stereo) [taxol] has what recorded solubility?
OUTPUT: 0.0106

* * *

test: physchem; conditions: 10% rameb in buffered saline, pH 7.6
ASSAY METRIC: solubility thermodynamic at 12 h (µg/mL)
// units = µg/mL; emit number, no label

INPUT: Item CC(=O)O[C@H]1C(=O)[C@@]2(C)[C@H]([C@H](OC(=O)c3ccccc3)[C@]3(O)C[C@H](OC(=O)[C@H](O)[C@@H](NC(=O)c4ccccc4)c4ccccc4)C(C)=C1C3(C)C)[C@]1(OC(C)=O)CO[C@@H]1C[C@@H]2O (relative stereo) has what recorded solubility thermodynamic at 12 h?
OUTPUT: 232
